Source: patent US4547503A

system: Providencia 12052
recorded.endpoint: MIC (µg/mL)

Observe how each entry below is paired with its result.
[
  {
    "line.notation": "O=C(CN1CCN(c2cc3c(cc2F)c(=O)c(C(=O)O)cn3C2CC2)CC1)c1ccc(F)cc1",
    "value.unit": "µg/mL",
    "MIC": 64
  },
  {
    "line.notation": "O=C(CN1CCN(c2cc3c(cc2F)c(=O)c(C(=O)O)cn3C2CC2)CC1)c1ccccc1",
    "value.unit": "µg/mL",
    "MIC": 128
  }
]

A. CC(=O)CN1CCN(c2cc3c(cc2F)c(=O)c(C(=O)O)cn3C2CC2)CC1
B. CC(=O)CCN1CCN(c2cc3c(cc2F)c(=O)c(C(=O)O)cn3C2CC2)CC1
Between these two entries, A and B , state which has the higher MIC. Please identify the chosen entry by its label. A
(A: 128 µg/mL, B: 32 µg/mL)

* * *

test system: Staphylococcus Fk 422; assay: MIC, agar dilution test; Denley multipoint inoculation procedure; type: cell-based; settings: FK422, read-out: Minimum inhibitory concentration
recorded.endpoint: MIC (µg/mL)

P. CC(=O)CN1CCN(c2cc3c(cc2F)c(=O)c(C(=O)O)cn3C2CC2)CC1
Q. O=C(CN1CCN(c2cc3c(cc2F)c(=O)c(C(=O)O)cn3C2CC2)CC1)c1ccc(F)cc1
Between these two entries, P and Q , state which has the higher MIC. Please identify the chosen entry by its label. Q

a. CC(=O)CCN1CCN(c2cc3c(cc2F)c(=O)c(C(=O)O)cn3C2CC2)CC1
b. O=C(CN1CCN(c2cc3c(cc2F)c(=O)c(C(=O)O)cn3C2CC2)CC1)c1ccc(Cl)cc1
c. O=C(CN1CCN(c2cc3c(cc2F)c(=O)c(C(=O)O)cn3C2CC2)CC1)c1ccc(O)cc1O
Exam item: list the entries in increasing order of MIC. // format: requested-order list of labels c, a, b
